# Test system: K562
# experiment-description: Antiproliferative activity against human K562 cells assessed as cell growth inhibition measured after 72 hrs by MTT assay
# Format: functional, cell-based
# test-conditions: K562, 72 h
pIC50: −log10 of the molar value.
measured-endpoint: pIC50

>>> df
                              record_smiles  recorded_measurement
0  COc1ccc(N(C)c2nc(C)nc3ccccc23)cc1OCCCC(=O)NO                  7.51

---

# tested-target: Tubulin
# experiment-description: Inhibition of tubulin depolymerization (unknown origin)
# Assay type: protein-complex assay, Homo sapiens
measured-endpoint: IC50 (µM)

                              record_smiles  tested_target  recorded_measurement
0  COc1cc(C(=O)c2ccc3c(n2)C(=O)C(N2CCCC2)=CC3=O)cc(OC)c1OC        Tubulin                   5.9

---

# experiment-description: Antiproliferative activity against human U87MG Human EGFR vIII cells assessed as cell growth inhibition
# Type: functional, cell-based
pEC50: −log10 of the molar value.
measured-endpoint: pEC50

In [3]: df
Out[3]:
                              record_smiles  measured_endpoint  recorded_measurement
0  O=C(CCCc1ccc(-c2ccccc2F)cc1)Nc1ccc(O)cc1              pEC50                  6.22

---

# experiment-description: Antiproliferative activity against human U87 cells assessed as cell growth inhibition
# Type: functional, cell-based, U-87MG ATCC
# test-conditions: U-87 MG
pEC50: −log10 of the molar value.
measured-endpoint: pEC50

                              record_smiles  measured_endpoint  recorded_measurement
0  O=C(CCCc1ccc(-c2ccccc2F)cc1)Nc1ccc(O)cc1              pEC50                  6.22

---

# Tested on: MES-SA/Dx5
# experiment-description: Antiproliferative activity against human MES-SA/Dx5 cells assessed as cell growth inhibition
# Format: functional, cell-based
measured-endpoint: IC50 (nM)

>>> df
                              record_smiles  measured_endpoint  units  recorded_measurement
0  COc1ccc(O)c(C(=O)c2cnc3[nH]c4ccccc4c3c2)c1               IC50     nM                   160

---

# tested-target: Tubulin
# experiment-description: Inhibition of tubulin polymerization (unknown origin)
# Format: protein-complex assay, Homo sapiens
pIC50: −log10 of the molar value.
measured-endpoint: pIC50

In [3]: df
Out[3]:
                              record_smiles  recorded_measurement
0  COc1ccc(C(=O)c2cc(C)c(OC)c(C)c2)cc1OC(=O)CCl                  5.89

---

# Tested on: HCT-116
# experiment-description: Antiproliferative activity against human HCT-116 cells assessed as cell growth inhibition
# Assay type: functional, cell-based
measured-endpoint: IC50 (nM)

                              record_smiles  tested_target  recorded_measurement
0  COc1cc(C(=O)c2ccc3c(n2)C(=O)C(N2CCCC2)=CC3=O)cc(OC)c1OC        HCT-116                    70

---

# System: NCI-H460
# experiment-description: Antiproliferative activity against human NCI-H460 cells assessed as cell growth inhibition measured after 72 hrs by MTT assay
# Type: functional, cell-based
# test-conditions: NCI-H460, 72 h
pIC50: −log10 of the molar value.
measured-endpoint: pIC50

>>> df
                              record_smiles  measured_endpoint  recorded_measurement
0  COc1ccc(N(C)c2nc(C)nc3ccccc23)cc1OCCCC(=O)NO              pIC50                  7.51
